meta.source: patent EP1377579B1

Assay: in vivo
Details: male, Hsd:ICR (CD-1), mouse, plasma, iv, 18 mg/kg
quantity.measured: concentration at 3 h (ng/mL)
Write it as a number; the unit ng/mL goes unstated.

Lookup: Give the value of concentration at 3 h reported for the following: COC(=O)c1ccccc1S(=O)(=O)N1CCC(Nc2nc(N[C@H]3CC[C@H](N)CC3)nc3c2ncn3C2CCCC2)CC1.Cl.Cl [compound 111, dihydrochloride]
Found: 33.8

Lookup: Give the value of concentration at 3 h reported for the following: Cl.Cl.N[C@H]1CC[C@H](Nc2nc(NC3CCN(C(=O)Oc4ccc(Br)cc4)CC3)c3ncn(C4CCCC4)c3n2)CC1 [compound 81, dihydrochloride]
Found: 12.7

Lookup: Give the value of concentration at 3 h reported for the following: Cl.Cl.N[C@H]1CC[C@H](Nc2nc(NC3CCN(C(=O)c4cccc(C(F)(F)F)c4F)CC3)c3ncn(C4CCCC4)c3n2)CC1 [compound 12, dihydrochloride]
Found: 74.7

----------
Biological target: cdk2/cyclin E (Homo sapiens)
Experiment: Cyclin-dependent kinase assay, cdk2/cyclin E
Conditions: CDK2 IC50, nM, GST-pRb substrate, 10 µM ATP
Where a name gives a salt, the structure may show the parent alone.
The threshold is 50 nM. Values of IC50 beneath it are tagged Criterion met; values meeting or exceeding it are tagged Criterion not met.

Lookup: Below 50 nM on IC50? Entry COc1ccc(CC(=O)N2CCC(Nc3nc(N[C@H]4CC[C@H](N)CC4)nc4c3ncn4C3CCCC3)CC2)cc1OC [compound 32, dihydrochloride]
Found: Criterion not met

Lookup: Below 50 nM on IC50? Entry N[C@H]1CC[C@H](Nc2nc(NC3CCN(S(=O)(=O)c4cccc5ccccc45)CC3)c3ncn(C4CCCC4)c3n2)CC1 [compound 123, dihydrochloride]
Found: Criterion not met

Lookup: Below 50 nM on IC50? Entry N[C@H]1CC[C@H](Nc2nc(NC3CCN(C(=O)Cc4ccccc4)CC3)c3ncn(C4CCCC4)c3n2)CC1 [compound 52, dihydrochloride]
Found: Criterion not met

Lookup: Below 50 nM on IC50? Entry CC(C)n1cnc2c(NC3CCN(S(=O)(=O)c4ccc(C#N)cc4)CC3)nc(N[C@H]3CC[C@H](N)CC3)nc21 [compound 145, dihydrochloride]
Found: Criterion not met

Lookup: Below 50 nM on IC50? Entry N[C@H]1CC[C@H](Nc2nc(NC3CCN(C(=O)C4CC4)CC3)c3ncn(C4CCCC4)c3n2)CC1 [compound 64, dihydrochloride]
Found: Criterion not met

Lookup: Below 50 nM on IC50? Entry `N[C@H]1CC[C@H](Nc2nc(NC3CCN(C(=O)c4cc(Cl)cc(Cl)c4)CC3)c3ncn(C4CCCC4)c3n2)CC1`
Found: Criterion not met

Lookup: Below 50 nM on IC50? Entry CCOC(=O)NC(=O)N1CCC(Nc2nc(N[C@H]3CC[C@H](N)CC3)nc3c2ncn3C2CCCC2)CC1 [compound 173, dihydrochloride]
Found: Criterion met

Lookup: Below 50 nM on IC50? Entry CCCNC(=O)N1CCC(Nc2nc(N[C@H]3CC[C@H](N)CC3)nc3c2ncn3C2CCCC2)CC1 [compound 206, dihydrochloride]
Found: Criterion met

Lookup: Below 50 nM on IC50? Entry N[C@H]1CC[C@H](Nc2nc(NC3CCN(S(=O)(=O)CC(F)(F)F)CC3)c3ncn(C4CCCC4)c3n2)CC1 [compound 133, dihydrochloride]
Found: Criterion not met

Lookup: Below 50 nM on IC50? Entry N[C@H]1CC[C@H](Nc2nc(NC3CCN(C(=O)Nc4ccccc4Cl)CC3)c3ncn(C4CCCC4)c3n2)CC1 [compound 169, dihydrochloride]
Found: Criterion met

Lookup: Below 50 nM on IC50? Entry N[C@H]1CC[C@H](Nc2nc(NC3CCN(C(=O)NC4CCCCC4)CC3)c3ncn(C4CCCC4)c3n2)CC1 [compound 205, dihydrochloride]
Found: Criterion not met

Lookup: Below 50 nM on IC50? Entry N[C@H]1CC[C@H](Nc2nc(NC3CCN(C(=O)Nc4ccccc4F)CC3)c3ncn(C4CCCC4)c3n2)CC1 [compound 207, dihydrochloride]
Found: Criterion met

----------
Molecular target: cdk2/cyclin E (Homo sapiens, UniProt P24941)
Experiment: Cyclin-dependent kinase assay, cdk2/cyclin E
Conditions: CDK2 IC50, nM, GST-pRb substrate, 10 µM ATP
Where a name gives a salt, the structure may show the parent alone.
quantity.measured: IC50 (nM)
Write it as a number; the unit nM goes unstated.

Lookup: Give the value of IC50 reported for the following: C=CCNC(=O)N1CCC(Nc2nc(N[C@H]3CC[C@H](N)CC3)nc3c2ncn3C2CCCC2)CC1 [compound 164, dihydrochloride]
Found: 86

Lookup: Give the value of IC50 reported for the following: NC1CCC(Nc2nc(NC3CCN(C(=O)C4CC4c4ccccc4)CC3)c3ncn(C4CCCC4)c3n2)CC1 (racemic) [compound 43, dihydrochloride]
Found: 77

Lookup: Give the value of IC50 reported for the following: CCCCCc1ccc(C(=O)N2CCC(Nc3nc(N[C@H]4CC[C@H](N)CC4)nc4c3ncn4C3CCCC3)CC2)cc1 [compound 22]
Found: 571

Lookup: Give the value of IC50 reported for the following: CCCCCCc1ccc(C(=O)N2CCC(Nc3nc(N[C@H]4CC[C@H](N)CC4)nc4c3ncn4C3CCCC3)CC2)cc1 [compound 23]
Found: 596

Lookup: Give the value of IC50 reported for the following: COc1ccccc1C(=O)N1CCC(Nc2nc(N[C@H]3CC[C@H](N)CC3)nc3c2ncn3C2CCCC2)CC1 [compound 7, dihydrochloride]
Found: 487

Lookup: Give the value of IC50 reported for the following: N[C@H]1CC[C@H](Nc2nc(NC3CCN(C(=O)Nc4cc(C(F)(F)F)ccc4Cl)CC3)c3ncn(C4CCCC4)c3n2)CC1 [compound 177, dihydrochloride]
Found: 60

Lookup: Give the value of IC50 reported for the following: N[C@H]1CC[C@H](Nc2nc(NC3CCN(S(=O)(=O)c4ccc5ccccc5c4)CC3)c3ncn(C4CCCC4)c3n2)CC1 [compound 116, dihydrochloride]
Found: 32

Lookup: Give the value of IC50 reported for the following: CC(C)(C)c1ccc(C(=O)N2CCC(Nc3nc(N[C@H]4CC[C@H](N)CC4)nc4c3ncn4C3CCCC3)CC2)cc1 [compound 20]
Found: 352

Lookup: Give the value of IC50 reported for the following: N#Cc1ccc(C(=O)N2CCC(Nc3nc(N[C@H]4CC[C@H](N)CC4)nc4c3ncn4C3CCCC3)CC2)cc1 [compound 25]
Found: 79

Lookup: Give the value of IC50 reported for the following: N[C@H]1CC[C@H](Nc2nc(NC3CCN(C(=O)c4ccncc4)CC3)c3ncn(C4CCCC4)c3n2)CC1 [compound 68]
Found: 84

Lookup: Give the value of IC50 reported for the following: CCCCCCCOc1ccc(C(=O)N2CCC(Nc3nc(N[C@H]4CC[C@H](N)CC4)nc4c3ncn4C3CCCC3)CC2)cc1 [compound 19]
Found: 567

Lookup: Give the value of IC50 reported for the following: N#Cc1cccc(NC(=O)N2CCC(Nc3nc(N[C@H]4CC[C@H](N)CC4)nc4c3ncn4C3CCCC3)CC2)c1 [compound 194, dihydrochloride]
Found: 15

Lookup: Give the value of IC50 reported for the following: N[C@H]1CC[C@H](Nc2nc(NC3CCN(C(=O)NC45CC6CC(CC(C6)C4)C5)CC3)c3ncn(C4CCCC4)c3n2)CC1 (relative stereo) [compound 181, dihydrochloride]
Found: 548

----------
Tested on: NCI-H460
Experiment: In vitro proliferation assay (MTT), NCI-H460
Format: cell-based
Settings: Homo sapiens, NCI-H460, read-out: H-460 Lung (IC50 µM)
quantity.measured: IC50 (µM)
Write it as a number; the unit µM goes unstated.

Lookup: Give the value of IC50 reported for the following: Cl.Cl.N[C@H]1CC[C@H](Nc2nc(NC3CCN(C(=O)Oc4ccc([N+](=O)[O-])cc4)CC3)c3ncn(C4CCCC4)c3n2)CC1 [compound 89, dihydrochloride]
Found: 0.03

Lookup: Give the value of IC50 reported for the following: Cl.Cl.N[C@H]1CC[C@H](Nc2nc(NC3CCN(C(=O)Oc4ccccc4)CC3)c3ncn(C4CCCC4)c3n2)CC1 [compound 85, dihydrochloride]
Found: 0.06

Lookup: Give the value of IC50 reported for the following: Cc1ccc(OC(=O)N2CCC(Nc3nc(N[C@H]4CC[C@H](N)CC4)nc4c3ncn4C3CCCC3)CC2)cc1.Cl.Cl [compound 82, dihydrochloride]
Found: 0.08

Lookup: Give the value of IC50 reported for the following: Cl.Cl.N[C@H]1CC[C@H](Nc2nc(NC3CCN(C(=O)Oc4ccc(F)cc4)CC3)c3ncn(C4CCCC4)c3n2)CC1 [compound 87, dihydrochloride]
Found: 0.08

Lookup: Give the value of IC50 reported for the following: COc1ccc(OC(=O)N2CCC(Nc3nc(N[C@H]4CC[C@H](N)CC4)nc4c3ncn4C3CCCC3)CC2)cc1.Cl.Cl [compound 84, dihydrochloride]
Found: 0.07

Lookup: Give the value of IC50 reported for the following: Cl.Cl.N[C@H]1CC[C@H](Nc2nc(NC3CCN(C(=O)Oc4ccc(Br)cc4)CC3)c3ncn(C4CCCC4)c3n2)CC1 [compound 81, dihydrochloride]
Found: 0.07
